# MEASURED ON: human catalytic domain HDAC4 protein (Homo sapiens, UniProt P56524, A743G/DEL730-739/DEL742-742)
# ASSAY NOTES: Inhibition of HDAC4 catalytic domain enzymatic activity, Boc-Lys(Tfa)-AMC substrate, fluorescence
# STATED CONDITIONS: Class IIa selective substrate Boc-Lys(Tfa)-AMC, read-out: Biochemical HDAC-4 IC50
READOUT KIND: IC50
I'd appreciate it if you wrote the number followed by its unit.

Answered examples (3):
{"columns": ["MOLECULE", "IC50"],
 "data": [
  ["O=C(NO)[C@@H]1[C@H](c2ccc(F)cc2)[C@H]1c1ccnc(C2CC2)c1 [Compound 28d]", "0.12 µM"],
  ["O=C(NO)[C@H]1[C@H](c2cc(Cl)c3c(c2)OCCO3)[C@H]1c1ccccc1F [Compound 25f]", "0.03 µM"],
  ["O=C(NO)[C@@H]1[C@H](c2ccccc2)[C@H]1c1cccc(N2CCN3CCCC3C2)c1 (relative stereo) [Compound 56f]", "0.63 µM"]
]}

Next:
Request: Bench note: what IC50 did O=C(NO)[C@@H]1[C@H](c2ccccc2)[C@H]1c1ccc(-c2ncc(C(F)(F)F)cn2)cc1 [Compound 50e] show?
Response: 0.18 µM

###

# MEASURED ON: human catalytic domain HDAC4 protein (Homo sapiens, UniProt P56524, A743G/DEL730-739/DEL742-742)
# ASSAY NOTES: Inhibition of HDAC4 catalytic domain enzymatic activity, Boc-Lys(Tfa)-AMC substrate, fluorescence
# STATED CONDITIONS: Class IIa selective substrate Boc-Lys(Tfa)-AMC, read-out: Biochemical HDAC-4 IC50
READOUT KIND: IC50 (nM)
Number only, in nM; omit the unit.

{"columns": ["COMPOUND", "IC50 [nM]"],
 "data": [
  ["O=C(NO)[C@@H]1[C@H](c2ccccc2)[C@H]1c1ccccc1F (racemic) [Compound 11b]", 320],
  ["O=C(NO)[C@@H]1[C@H](c2ccccc2)[C@H]1c1cccc(N2CCC(N3CCCC3)CC2)c1 (racemic) [Compound 56g]", 390],
  ["O=C(NO)[C@@H]1[C@H](c2ccccc2)[C@H]1c1ccc(-n2cccn2)cc1 (racemic)", 90]
]}

Next:
Request: Bench note: what IC50 did O=C(NO)[C@@H]1[C@H](c2ccccc2)[C@H]1c1ccc(-c2ccnnc2)cc1 (racemic) [Compound 50g] show?
Response: 110

###

# MEASURED ON: human catalytic domain HDAC4 protein (Homo sapiens, UniProt P56524, A743G/DEL730-739/DEL742-742)
# ASSAY NOTES: Inhibition of HDAC4 catalytic domain enzymatic activity, Boc-Lys(Tfa)-AMC substrate, fluorescence
# STATED CONDITIONS: Class IIa selective substrate Boc-Lys(Tfa)-AMC, read-out: Biochemical HDAC-4 IC50
compounds and their reported pIC50
// pIC50: -log10(molar conc.)

Answered examples (3):
{"columns": ["COMPOUND", "pIC50"],
 "data": [
  ["O=C(NO)[C@H]1[C@H](c2ccc(NCC(F)(F)F)nc2)[C@H]1c1ccccc1F", 6.77],
  ["Cc1cnc(-c2ccc([C@H]3[C@H](C(=O)NO)[C@@H]3c3ccccc3)cc2)s1", 7.40],
  ["CC(C)c1nc2ccc([C@H]3[C@H](C(=O)NO)[C@@H]3c3ccccc3)cc2o1", 7.70]
]}

Next:
Request: Bench note: what pIC50 did O=C(NO)[C@H]1[C@H](c2ccccc2)[C@H]1c1ccccc1F (racemic) show?
Response: 6.03

###

# System: cellular histone deacetylase enzymatic activity in Jurkat E6-1 cells
# ASSAY NOTES: Inhibition of cellular HDAC activity, Boc-Lys(Tfa)-AMC substrate, in Jurkat E6-1 cells
# Type: cell-based
# STATED CONDITIONS: Homo sapiens, Class IIa selective substrate Boc-Lys(Tfa)-AMC
READOUT KIND: IC50 (nM)
Number only, in nM; omit the unit.

{"columns": ["COMPOUND", "MEAS VALUE"],
 "data": [
  ["Cc1cccc([C@H]2[C@H](C(=O)NO)[C@@H]2c2ccccc2)c1 (racemic) [Compound 18b]", 2740],
  ["O=C(NO)[C@@H]1[C@H](c2ccccc2)[C@H]1c1ccccc1Br (racemic) [Compound 16a]", 6530],
  ["O=C(NO)[C@@H]1[C@H](c2ccccc2)[C@H]1c1cccc(N2CCCn3nccc32)c1 [Compound 56h]", 770],
  ["C[C@@]1(C(=O)NO)[C@H](c2ccccc2)[C@H]1c1ccc(-c2ncc(F)cn2)cc1 (racemic)", 1550]
]}

Request: State its IC50 on cellular histone deacetylase enzymatic activity in Jurkat E6-1 cells: `O=C(NO)[C@@H]1[C@H](c2ccccc2)[C@H]1c1cnc2ccccn12`
Response: 6660

Request: State its IC50 on cellular histone deacetylase enzymatic activity in Jurkat E6-1 cells: CC(C)N1CCN(c2cccc([C@H]3[C@H](C(=O)NO)[C@@H]3c3ccccc3)c2)CC1 (racemic) [Compound 56b]
Response: 5080

Request: State its IC50 on cellular histone deacetylase enzymatic activity in Jurkat E6-1 cells: O=C(NO)[C@@H]1[C@H](c2ccccc2)[C@H]1c1ccc(-c2ncc(C3CC3)cn2)cc1 (racemic) [Compound 50c]
Response: 810

Request: State its IC50 on cellular histone deacetylase enzymatic activity in Jurkat E6-1 cells: O=C(NO)[C@@H]1[C@H](c2ccccc2)[C@H]1c1cccc(N2CCC(N3CCCC3)CC2)c1 (racemic) [Compound 56g]
Response: 2180

Request: State its IC50 on cellular histone deacetylase enzymatic activity in Jurkat E6-1 cells: Cc1ccc([C@H]2[C@H](C(=O)NO)[C@@H]2c2ccccc2)cc1 (racemic) [Compound 18c]
Response: 2250

Request: State its IC50 on cellular histone deacetylase enzymatic activity in Jurkat E6-1 cells: `O=C(NO)[C@@H]1[C@H](c2ccccc2)[C@H]1c1ccn2cc(C(F)(F)F)nc2c1`
Response: 2500

Request: State its IC50 on cellular histone deacetylase enzymatic activity in Jurkat E6-1 cells: CC(C)N1CCN(c2ccc([C@H]3[C@H](C(=O)NO)[C@@H]3c3ccccc3)cc2)CC1 (racemic) [Compound 56a]
Response: 760

Request: State its IC50 on cellular histone deacetylase enzymatic activity in Jurkat E6-1 cells: O=C(NO)[C@@H]1[C@H](c2ccccc2)[C@H]1c1ccc(-c2nccc(C(F)(F)F)n2)cc1 (racemic) [Compound 50d]
Response: 880

Request: State its IC50 on cellular histone deacetylase enzymatic activity in Jurkat E6-1 cells: O=C(NO)[C@H]1[C@H](c2ccccc2)[C@H]1c1ccccc1F (racemic)
Response: 7670

Request: State its IC50 on cellular histone deacetylase enzymatic activity in Jurkat E6-1 cells: O=C(NO)[C@@H]1[C@H](c2ccccc2)[C@H]1c1ccc(NS(=O)(=O)C2CC2)cc1 (racemic)
Response: 1320

###

# MEASURED ON: human catalytic domain HDAC4 protein (Homo sapiens, UniProt P56524, A743G/DEL730-739/DEL742-742)
# ASSAY NOTES: Inhibition of HDAC4 catalytic domain enzymatic activity, Boc-Lys(Tfa)-AMC substrate, fluorescence
# STATED CONDITIONS: Class IIa selective substrate Boc-Lys(Tfa)-AMC, read-out: Biochemical HDAC-4 IC50
molecules and their reported IC50
Number only, in nM; omit the unit.

Answered examples (4):
{"columns": ["MOLECULE", "UOM", "IC50"],
 "data": [
  ["O=C(NO)[C@@H]1[C@H](c2ccccc2)[C@H]1c1ccc(C2=CCN(Cc3ccccc3)CC2)cc1", "nM", 350],
  ["O=C(NO)[C@H]1[C@H](c2ccnc(C3CC3)c2)[C@H]1c1ccccc1F [Compound 28c]", "nM", 40],
  ["CC(C)N1CCN(c2cccc([C@H]3[C@H](C(=O)NO)[C@@H]3c3ccccc3)c2)CC1 (racemic) [Compound 56b]", "nM", 1430],
  ["O=C(NO)[C@@H]1[C@H](c2ccccc2)[C@H]1c1cccc(N2CCCn3nccc32)c1 [Compound 56h]", "nM", 170]
]}

Request: Bench note: what IC50 did O=C(NO)[C@@H]1[C@H](c2ccccc2)[C@H]1c1cnn(-c2ccc(C(F)(F)F)cn2)c1 [Compound 92b] show?
Response: 180

Request: Bench note: what IC50 did O=C(NO)[C@@H]1[C@H](c2cccc(F)c2)[C@H]1c1ccnc(C2CC2)c1 [Compound 100b] show?
Response: 20

Request: Bench note: what IC50 did CN1CCOc2cc(-c3ccc([C@H]4[C@H](C(=O)NO)[C@@H]4c4ccccc4)cc3)ccc21 [Compound 54c] show?
Response: 260

###

# MEASURED ON: human catalytic domain HDAC4 protein (Homo sapiens, UniProt P56524, A743G/DEL730-739/DEL742-742)
# ASSAY NOTES: Inhibition of HDAC4 catalytic domain enzymatic activity, Boc-Lys(Tfa)-AMC substrate, fluorescence;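 further: trypsin releases AMC from deacetylated substrate, fluorescence tracks enzyme activity, 15 min reaction at 37 °C, 100% activity defined by DMSO-only control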
# STATED CONDITIONS: Class IIa selective substrate Boc-Lys(Tfa)-AMC, read-out: Biochemical HDAC-4 IC50
compounds and their reported log10 IC50
Hello, just confirming the data are log10 of IC50 with units of nM.

Answered examples (8):
{"columns": ["COMPOUND", "MEAS VALUE"],
 "data": [
  ["O=C(NO)[C@@H]1[C@H](c2ccccc2)[C@H]1c1ccc(-c2ccc3c(c2)CN(C2CC2)C3)cc1 (racemic)", 2.68],
  ["O=C(NO)[C@@H]1[C@H](c2ccccc2)[C@H]1c1ccc(NS(=O)(=O)C2CC2)cc1 (racemic)", 1.70],
  ["CC(C)Oc1ccccc1[C@@H]1C(c2ccccc2)[C@H]1C(=O)NO (mixture of isomers) [Compound 11a]", 4.31],
  ["CN1CCN(c2ccc([C@H]3[C@H](C(=O)NO)[C@@H]3c3ccccc3)cc2)CC1 (racemic) [Compound 56i]", 2.15],
  ["O=C(NO)[C@@H]1[C@H](c2ccccc2)[C@H]1c1ccc(-c2cnc(-c3ccccc3)o2)cc1 (racemic)", 2.45],
  ["Cc1ncc(-c2ccc([C@H]3[C@H](C(=O)NO)[C@@H]3c3ccccc3F)cc2)o1 [Compound 75b]", 1.70],
  ["CC(C)N1CCN(c2ccc([C@H]3[C@H](C(=O)NO)[C@@H]3c3ccccc3)cc2)CC1 (racemic) [Compound 56a]", 1.95],
  ["O=C(NO)[C@H]1[C@H](c2ccccc2)[C@H]1C1CCCCC1 (racemic)", 3.79]
]}

Next:
Request: Bench note: what log10 IC50 did `CC(C)N1CCN(c2ccc([C@H]3[C@H](C(=O)NO)[C@@H]3c3ccccc3F)cn2)CC1` show?
Response: 2.08
